Reference source for all entries: ChEMBL document CHEMBL1152375

Molecular target: Hydroxycarboxylic acid receptor 3 (Homo sapiens, UniProt P49019)
Sequence (P49019 whole entry): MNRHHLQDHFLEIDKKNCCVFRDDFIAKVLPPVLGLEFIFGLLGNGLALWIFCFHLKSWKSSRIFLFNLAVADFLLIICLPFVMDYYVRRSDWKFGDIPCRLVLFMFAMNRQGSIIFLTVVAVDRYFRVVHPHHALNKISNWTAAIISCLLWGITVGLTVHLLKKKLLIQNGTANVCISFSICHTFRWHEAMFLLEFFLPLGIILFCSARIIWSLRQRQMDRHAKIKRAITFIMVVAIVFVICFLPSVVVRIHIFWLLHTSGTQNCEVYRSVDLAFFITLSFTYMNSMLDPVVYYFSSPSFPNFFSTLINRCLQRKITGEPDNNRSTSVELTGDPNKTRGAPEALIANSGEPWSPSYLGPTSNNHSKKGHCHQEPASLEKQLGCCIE
Assay: Agonist activity at GPR109b receptor transfected in CHOK1 cells assessed as inhibition of forskolin-induced cAMP generation by HTRF assay
pEC50: −log10 of the molar value.
Classify as follows. Reported pEC50 greater than or equal to 7: yes (1). Reported pEC50 below: no (0).

compound	classification
O=C(O)c1cc(N(Cc2ccccc2F)Cc2ccccc2F)[nH]n1	no (0)
O=C(O)c1cc(N(Cc2cccc(F)c2)Cc2cccc(F)c2)[nH]n1	no (0)
CCC(C)Nc1cc(C(=O)O)n[nH]1 (stereo not drawn)	no (0)
CCCC(C)Nc1cc(C(=O)O)n[nH]1 (stereo not drawn)	no (0)
O=C(O)c1cc(N(Cc2cccs2)Cc2cccs2)[nH]n1	no (0)
O=C(O)c1cc(N(Cc2ccsc2)Cc2ccco2)[nH]n1	no (0)
O=C(O)c1cc(N(Cc2ccsc2)Cc2ccsc2)[nH]n1	yes (1)
O=C(O)c1cc(N(CCc2ccccc2)CCc2ccccc2)[nH]n1	no (0)
C=CCNc1ccc(C(=O)O)cn1	yes (1)
O=C(O)c1cc(N(Cc2ccoc2)Cc2ccoc2)[nH]n1	no (0)
O=C(O)c1cc(N(Cc2ccccc2)Cc2ccccc2)[nH]n1	no (0)
CCCN(CCC)c1cc(C(=O)O)n[nH]1	no (0)
CC(C)CCN(CCC(C)C)c1cc(C(=O)O)n[nH]1	no (0)
CCCCCCN(CCCCCC)c1cc(C(=O)O)n[nH]1	no (0)
O=C(O)c1cc(N(Cc2ccc(F)cc2)Cc2ccc(F)cc2)[nH]n1	no (0)
O=C(O)c1cc(N(Cc2ccccc2)Cc2ccsc2)[nH]n1	yes (1)
O=C(O)c1cc(N(CC2CC2)CC2CC2)[nH]n1	no (0)
